In this section we review reported activity change values for a set of compounds.
Target: Androgen receptor (Homo sapiens) (UniProt P10275)
Sequence (P10275 whole entry, looked up): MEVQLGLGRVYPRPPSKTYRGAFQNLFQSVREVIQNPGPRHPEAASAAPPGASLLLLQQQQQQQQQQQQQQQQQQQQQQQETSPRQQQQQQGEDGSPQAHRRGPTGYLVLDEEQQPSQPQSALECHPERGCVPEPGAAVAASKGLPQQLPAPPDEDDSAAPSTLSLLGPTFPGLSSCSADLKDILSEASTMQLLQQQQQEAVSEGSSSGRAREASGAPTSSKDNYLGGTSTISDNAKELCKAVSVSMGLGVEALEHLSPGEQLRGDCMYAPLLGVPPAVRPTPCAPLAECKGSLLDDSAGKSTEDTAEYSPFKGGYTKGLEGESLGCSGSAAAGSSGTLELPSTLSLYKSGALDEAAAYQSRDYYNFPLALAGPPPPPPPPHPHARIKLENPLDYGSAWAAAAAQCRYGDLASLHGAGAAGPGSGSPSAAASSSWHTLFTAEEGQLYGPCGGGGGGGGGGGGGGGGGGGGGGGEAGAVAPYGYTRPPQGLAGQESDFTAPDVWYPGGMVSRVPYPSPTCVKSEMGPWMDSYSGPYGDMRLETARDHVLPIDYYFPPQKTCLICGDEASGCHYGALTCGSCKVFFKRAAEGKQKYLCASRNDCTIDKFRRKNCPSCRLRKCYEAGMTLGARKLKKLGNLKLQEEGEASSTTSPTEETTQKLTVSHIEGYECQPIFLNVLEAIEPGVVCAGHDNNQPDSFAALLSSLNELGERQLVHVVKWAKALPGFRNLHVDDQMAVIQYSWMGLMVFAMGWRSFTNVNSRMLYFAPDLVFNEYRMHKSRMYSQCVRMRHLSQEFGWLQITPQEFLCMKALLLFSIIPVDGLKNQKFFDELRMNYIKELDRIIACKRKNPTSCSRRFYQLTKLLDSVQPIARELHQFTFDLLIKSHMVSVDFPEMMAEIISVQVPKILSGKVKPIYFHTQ
Test: qHTS assay to identify small molecule agonists of the androgen receptor (AR) signaling pathway using the MDA cell line (AID 743040; further: on the % scale 0 is the no-effect control and ±100 the full control effect; nearly all actives have a fitted effect of over 20% in size)
Conditions: MDA-kb2 AR-luc cells, MMTV luciferase, 16 h; at 70.3 µM (top of the series); active compounds read high
Please reply with the bare figure in % and do not write the unit itself.

Known results for compounds:
Cc1ccccc1Cl	-0.0268
OCC(O)CS (stereo not given)	0.512
O=[N+]([O-])c1cc(C(F)(F)F)ccc1Cl	-0.292
CCCN(CCC)C(=O)SCC	1.01

Switching to the query record.
INPUT: Any idea what activity change was measured for `Nc1nc(N)c2nc(-c3ccccc3)c(N)nc2n1` ?
OUTPUT: 18

* * *

Experiment: qHTS RealTime-Glo MT Cell Viability Assay in HEK293 cells - 0 hour (AID 1224880); further: top concentration of the series differs between compounds; on the % scale 0 is the no-effect control and ±100 the full control effect; nearly all actives have a fitted effect of over 45% in size
Conditions: RealTime-Glo luminescence; series mostly up to 76.8 µM
Results filed as inconclusive are left out. Calls of active or inactive are those of the source. Calls come from the whole dose curve; as a rule, active = well fitted cell-killing curve with a large enough effect in the repeat runs; inconclusive = weak or mixed curves, or effect the other way; inactive = flat fitted curve, though single readings scatter.
PROPERTY: outcome

CC(=O)C(C)C	inactive
Cc1ccccc1Cl	inactive
CC[N+](CC)(CC(=O)Nc1c(C)cccc1C)Cc1ccccc1	inactive
CC(=O)OC(C)(C)C1CC=C(C)CC1 (configuration not stated)	inactive

INPUT: Fill blank: measured outcome of the molecule CCCOCC(C)O (configuration not stated) is ____.
OUTPUT: inactive

* * *

Assay: A CellTox Green Cytotoxicity Assay to monitor cytotoxicity in HEK293 cells - 40 hour (AID 1224871); further: on the % scale 0 is the no-effect control and ±100 the full control effect; nearly all actives have a fitted effect of over 45% in size
Conditions: CellTox Green fluorescence; series mostly up to 76.8 µM
Inconclusive results are not listed. Calls of active or inactive are those of the source. Calls follow the shape of the dose curve; as a rule, active = well fitted activation curve with a large enough effect in the repeat runs; inconclusive = weak or mixed curves; inactive = flat fitted curve, though single readings scatter.
PROPERTY: cytotoxicity increase

// below: answered compounds
O=C1O[C@H]([C@H](O)CO)C(O)=C1O	inactive
Cc1ccccc1Cl	inactive
CC(=O)CC(=O)N(C)C	inactive
Nc1cccc(C(F)(F)F)c1	inactive
CN1CCCC1=O	inactive

INPUT: So what does the record say about cytotoxicity increase for `CC(=O)OC[C@H]1O[C@@](COC(C)=O)(O[C@H]2O[C@H](COC(C)=O)[C@@H](OC(C)=O)[C@H](OC(C)=O)[C@H]2OC(C)=O)[C@@H](OC(C)=O)[C@@H]1OC(C)=O` ?
OUTPUT: inactive

INPUT: Entry to check: `NC(=O)NC(N)=O`
OUTPUT: inactive

* * *

Experiment: A CellTox Green Cytotoxicity Assay to monitor cytotoxicity in HepG2 cells - 24 hour (AID 1224878); further: on the % scale 0 is the no-effect control and ±100 the full control effect; nearly all actives have a fitted effect of over 45% in size
Conditions: CellTox Green fluorescence; series mostly up to 76.8 µM
Results filed as inconclusive are left out. Calls of active or inactive are those of the source. Calls come from the whole dose curve; as a rule, active = well fitted activation curve with a large enough effect in the repeat runs; inconclusive = weak or mixed curves; inactive = flat fitted curve, though single readings scatter.
PROPERTY: outcome

CCN(CC)CCNC(=O)c1ccc(N)cc1	inactive
Cc1cccc(C)c1[N+](=O)[O-]	inactive
CCCCCNCCCCC	inactive
O=C1O[C@H]([C@H](O)CO)C(O)=C1O	inactive
Cc1cc(CC(=O)O)n(C)c1C(=O)c1ccc(Cl)cc1	inactive
C=C1C[C@]23C[C@@]1(O)CC[C@H]2[C@@]12C=C[C@H](O)[C@@](C)(C(=O)O1)[C@H]2[C@@H]3C(=O)O	inactive

INPUT: Reported outcome for `Cc1ccc(C(C)C)cc1` : what is it?
OUTPUT: inactive

INPUT: Entry to check: `COc1c2ccoc2cc2oc(=O)ccc12`
OUTPUT: inactive

INPUT: Again, but for `CCc1cccc(O)c1`
OUTPUT: inactive

INPUT: Also check `CC/C=C(\C(=O)N[C@@H]1C(=O)N2C(C(=O)OCOC(=O)C(C)(C)C)=C(COC(N)=O)CS[C@H]12)c1csc(N)n1`
OUTPUT: inactive

INPUT: `CC(=O)c1nccs1` , same question.
OUTPUT: inactive

INPUT: And `Oc1ccc(Cc2ccccc2O)cc1` ?
OUTPUT: inactive

INPUT: Also need `Clc1cccc(Cl)c1NC1=NCCN1` , thanks.
OUTPUT: inactive

INPUT: Again, but for `COC(=O)CCCCC(=O)OC`
OUTPUT: inactive

INPUT: Would you mind doing `Cc1ccc([N+](=O)[O-])cc1N` as well?
OUTPUT: inactive

INPUT: Same lookup for `Cc1ccc(C)c(S(=O)(=O)O)c1` , please.
OUTPUT: inactive

INPUT: Record: `COc1c(Cl)ccc(Cl)c1C(=O)O`
OUTPUT: inactive

INPUT: Next entry: CC(O)CNCC(C)O (stereo not given)
OUTPUT: inactive

* * *

Test: A CellTox Green Cytotoxicity Assay to monitor cytotoxicity in HEK293 cells - 32 hour (AID 1224881); further: on the % scale 0 is the no-effect control and ±100 the full control effect; nearly all actives have a fitted effect of over 40% in size
Details: CellTox Green fluorescence; series mostly up to 76.8 µM
Records with an inconclusive call do not appear. Calls of active or inactive are those of the source. Calls come from the whole dose curve; as a rule, active = well fitted activation curve with a large enough effect in the repeat runs; inconclusive = weak or mixed curves; inactive = flat fitted curve, though single readings scatter.
PROPERTY: cytotoxicity increase

OC1CCCCC1	inactive
C=CC(C)(C)C	inactive
Cc1cc(CC(=O)O)n(C)c1C(=O)c1ccc(Cl)cc1	inactive
CC(=O)OCCC(C)C	inactive

INPUT: Request the reported cytotoxicity increase associated with `CO[Si](CCCNCCN)(OC)OC`
OUTPUT: inactive

INPUT: Now try `CC/C=C(\C(=O)N[C@@H]1C(=O)N2C(C(=O)OCOC(=O)C(C)(C)C)=C(COC(N)=O)CS[C@H]12)c1csc(N)n1` .
OUTPUT: inactive

INPUT: Now this one: CCCOCC(C)O (centres undefined)
OUTPUT: inactive

INPUT: Same thing, different compound: `NC(=O)c1ncn([C@@H]2O[C@H](CO)[C@@H](O)[C@H]2O)n1`
OUTPUT: inactive

INPUT: Please give the result for `Cc1ccc(C(C)C)cc1` too.
OUTPUT: inactive

INPUT: // next record `CC(=O)Nc1ccc(CC(=O)O)cc1`
OUTPUT: inactive

INPUT: Next record, please: `Cc1ccc(C)c(S(=O)(=O)O)c1`
OUTPUT: inactive

INPUT: Let us now turn to O=C1C(N(CO)C(=O)NCO)N(CO)C(=O)N1CO (centres undefined)
OUTPUT: inactive

INPUT: Please answer likewise for CC(C=O)Cc1ccc(C(C)(C)C)cc1 (centres undefined)
OUTPUT: inactive

INPUT: Cool, now `COc1ccccc1[N+](=O)[O-]`
OUTPUT: inactive

* * *

Assay: qHTS assay to identify small molecule antagonists of the androgen receptor (AR) signaling pathway - cell viability counter screen (AID 743033; further: nearly all actives have a fitted effect of over 45% in size)
Conditions: AR-bla HEK293 viability, CellTiter-Glo luminescence, 16 h; series mostly up to 58.5 µM
Records with an inconclusive call do not appear. Active and inactive are the calls of the source. Calls follow the shape of the dose curve; as a rule, active = well fitted cell-killing curve with a large enough effect in the repeat runs; inconclusive = weak or mixed curves; inactive = no such curve, though single readings can be large or run the other way.
Respond using exactly one of the listed classes: Yes = active, No = inactive

Would you please look over these solved cases?
Nc1nc(N)c2nc(-c3ccccc3)c(N)nc2n1	Yes
CCCCC(=O)O	No
O=Cc1ccc(CO)o1	No
CCCCCCCCC(=O)O	No

INPUT: // return assay outcome for `OC[C@H]1O[C@@H](Oc2ccc(O)cc2)[C@H](O)[C@@H](O)[C@@H]1O`
OUTPUT: No

INPUT: Note, next up: `CC1(C)[C@@H](O[C@H]2O[C@H](C(=O)O)[C@@H](O)[C@H](O)[C@H]2O[C@@H]2O[C@H](C(=O)O)[C@@H](O)[C@H](O)[C@H]2O)CC[C@]2(C)[C@H]3C(=O)C=C4[C@@H]5C[C@@](C)(C(=O)O)CC[C@]5(C)CC[C@@]4(C)[C@]3(C)CC[C@@H]12`
OUTPUT: No

INPUT: Lookup `COc1c2ccoc2cc2oc(=O)ccc12`
OUTPUT: No

INPUT: Also check `C=C(CC(=O)O)C(=O)O`
OUTPUT: No

INPUT: Queued: OCC(O)CS (stereo not drawn)
OUTPUT: No

INPUT: Param item: `O=C(O)C1=NN(c2ccc(S(=O)(=O)O)cc2)C(=O)C1`
OUTPUT: No

INPUT: Repeat with `CCCCCCCCCCCCCC(=O)O`
OUTPUT: No

INPUT: Follow-up entry: `OB(O)O`
OUTPUT: No

INPUT: Follow-up item: `Cc1ccncc1`
OUTPUT: No

* * *

Biological target: Thyrotropin-releasing hormone receptor (Homo sapiens) (UniProt P34981)
Sequence (P34981 whole entry, looked up): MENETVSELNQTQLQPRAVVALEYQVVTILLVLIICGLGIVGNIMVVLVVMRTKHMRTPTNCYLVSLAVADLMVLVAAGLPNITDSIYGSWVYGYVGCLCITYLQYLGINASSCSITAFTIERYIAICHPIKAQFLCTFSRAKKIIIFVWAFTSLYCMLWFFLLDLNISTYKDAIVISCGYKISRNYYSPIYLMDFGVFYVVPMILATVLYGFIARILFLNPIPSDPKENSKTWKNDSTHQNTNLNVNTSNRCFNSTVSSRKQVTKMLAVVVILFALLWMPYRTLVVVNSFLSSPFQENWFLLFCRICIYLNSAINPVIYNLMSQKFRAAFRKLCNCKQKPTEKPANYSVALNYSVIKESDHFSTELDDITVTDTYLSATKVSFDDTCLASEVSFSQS
Test: qHTS assay to identify small molecule antagonists of the thyrotropin-releasing hormone receptor (TRHR) signaling pathway (AID 1346877); further: on the % scale 0 is the no-effect control and ±100 the full control effect
Details: TRHR-HEK293, TRH-induced calcium fluorescence, antagonist mode; series mostly up to 51.3 µM
Active and inactive are the calls of the source. Calls come from the whole dose curve; as a rule, active = well fitted inhibition curve with a large enough effect in the repeat runs (not every such curve was filed as active); inconclusive = weak or mixed curves; inactive = flat fitted curve, though single readings scatter.
PROPERTY: outcome

NC(N)=S	inactive
COC(=O)/C=C\C(=O)OC	inactive
Oc1ccc(Cc2ccccc2O)cc1	inactive
OCCOCCOCCOCCOCCO	inactive

Consider the record given below.
INPUT: Need outcome of `O=[N+]([O-])c1cc(C(F)(F)F)ccc1Cl` , thanks.
OUTPUT: inactive

* * *

Test: A CellTox Green Cytotoxicity Assay to monitor cytotoxicity in HEK293 cells - 0 hour (AID 1224869); further: on the % scale 0 is the no-effect control and ±100 the full control effect; nearly all actives have a fitted effect of over 50% in size
Settings: CellTox Green fluorescence; series mostly up to 76.8 µM
From the text: National Center for Advancing Translational Sciences [NCATS] NIH Chemical Genomics Center [NCGC] U.S. Environmental Protection Agency [EPA] National Institutes of Environmental Health Sciences [NIEHS] National Toxicology Program [NTP] Cell-based models are critical for drug discovery. […] Viable cells produce no appreciable increases in fluorescence. Therefore, the fluorescence signal produced by the binding interaction with dead cell DNA is proportional to cytotoxicity. […]
Activity calls are given as the source filed them. Calls follow the shape of the dose curve; as a rule, active = well fitted activation curve with a large enough effect in the repeat runs; inconclusive = weak or mixed curves; inactive = flat fitted curve, though single readings scatter.
PROPERTY: outcome

Solved entries (count: 5):
CC1(C)C(=O)N(Cl)C(=O)N1Cl	inactive
OC[C@H]1O[C@@H](Oc2ccc(O)cc2)[C@H](O)[C@@H](O)[C@@H]1O	inactive
COC(=O)/C=C\C(=O)OC	inactive
CS(=O)(=O)c1ccc(Cl)cc1	inactive
CCc1cccc(CC)c1N	inactive

INPUT: For the compound CC(=O)OC(C)(C)C1CC=C(C)CC1 (stereo not given) , what outcome is on record?
OUTPUT: inactive

INPUT: Note, next up: `COc1c2ccoc2cc2oc(=O)ccc12`
OUTPUT: inactive

INPUT: Do the same for CC(COCC(C)OC(=O)c1ccccc1)OC(=O)c1ccccc1 (stereo not given) please
OUTPUT: inactive

INPUT: And the next one, `COc1cc(NC(=O)CC(C)=O)c(OC)cc1Cl` ?
OUTPUT: inactive

INPUT: Now the same for `COC(=O)CCCCC(=O)OC`
OUTPUT: inactive

INPUT: Same thing, different compound: `Cc1cc(CC(=O)O)n(C)c1C(=O)c1ccc(Cl)cc1`
OUTPUT: inactive

INPUT: Another compound to check: `Cc1ccc(C)c(S(=O)(=O)O)c1`
OUTPUT: inactive

INPUT: Next entry: `Cc1ccncc1`
OUTPUT: inactive

INPUT: Same for `CCCOC(=O)NCCCN(C)C`
OUTPUT: inactive

INPUT: Continue with `CCOC(=O)c1ccc(O)cc1`
OUTPUT: inactive
